Recorded measurements of MIC, one per entry
System: P. aeruginosa (ΔmexAB-oprM)
Protocol summary: microbe, parasite or virus in culture
Format: cell-based
Condition set: Pseudomonas aeruginosa, read-out: MIC P. aeruginosa ΔmexAB-OprM
Quantity measured: MIC

Compound: CCN1CCN(C(=O)NC(C(=O)N[C@H]2Cc3cccc(C(=O)O)c3OB2O)c2ccc(C(=O)O)cc2)C(=O)C1=O (stereo partly shown)
Quantity measured: MIC
Reading: 8 to 16 µg/mL

Compound: CCN1CCN(C(=O)NC(C(=O)N[C@H]2Cc3ccc(F)c(C(=O)O)c3OB2O)c2ccc(O)c(O)c2Cl)C(O)C1=O (stereo partly shown)
Quantity measured: MIC
Reading: 0.5 to 1 µg/mL

Compound: CCN1CCN(C(=O)NC(C(=O)N[C@H]2Cc3ccc(Cl)c(C(=O)O)c3OB2O)c2ncc(O)cc2F)C(=O)C1=O (stereo partly shown)
Quantity measured: MIC
Reading: 32 to 64 µg/mL

Compound: CCN1C[C@H](CCN)N(C(=O)NC(C(=O)N[C@H]2Cc3cccc(C(=O)O)c3OB2O)c2ncc(O)cc2F)C(=O)C1=O (stereo partly shown)
Quantity measured: MIC
Reading: > 128 µg/mL
